protocolText: In vivo PK study in SD rats
runConditions: rat, plasma, iv; male SD rats, 1 mg/kg intravenously; read-out: Vdss
measurementType: Vd (L/kg)
Expressed in L/kg, but write only the number.

Which Vd value is on record for Cc1cccc(CN2C(=O)c3nc(-c4nc(Nc5ccnn5C)ncc4C)sc3C2(C)C)n1 [WX001] ?
1.06

###

protocolText: In vivo PK study in mice
runConditions: mouse, plasma, iv; female BALB/c mice, 1 mg/kg intravenously; read-out: Vdss
measurementType: Vd (L/kg)
Expressed in L/kg, but write only the number.

Which Vd value is on record for "Cc1cccc(CN2C(=O)c3nc(-c4nc(Nc5ccnn5C)ncc4C)sc3C2(C)C)n1" ?
1.6
